Target: T1, CD134 protein (His-tagged, Sino Biological Inc. 10481-H08H) (human, UniProt P43489 29-216)
T1 construct: bought protein coated on ELISA plates; also called OX40; TNFRSF4; not shown: His tag
T1 sequence (looked up): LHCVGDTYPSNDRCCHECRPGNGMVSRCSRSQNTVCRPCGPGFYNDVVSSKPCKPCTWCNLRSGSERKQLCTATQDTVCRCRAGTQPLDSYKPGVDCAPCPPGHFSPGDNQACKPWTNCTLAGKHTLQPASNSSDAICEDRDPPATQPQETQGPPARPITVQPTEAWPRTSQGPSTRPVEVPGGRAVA
Assay: ELISA, coated His-tagged CD134; note: test concentration or dose not given here
Each entry below lists one item and its recorded ELISA [abs. corr.] value.
Hi! Could you send only the number? It should be in abs. corr., unit omitted.

- binder: "P018.S.02.A.H03 (antibody, V domains shown, V regions on human Ig constant parts; also called AB134_3) VH: QSLEESGGRLVTPGGSLTLTCTVSGIDLSSYGMGWVRQAPGKGLEWIGTISYGGSTFYANWVKGRFTISKTSTTVDLKVTSLTTEDAATYFCAREVPYWSLWGQGTLVTVSS VL: AYDMTQTPASVAAAVGGTVTIKCQASQSIGSDLSWYQQKRGQPPKLLIYDASTLASGVPSRFKGSGSGTEFTLTISDVQSADAATVYCQQDYSYRNVDNTFGGGTEVVVK"
  ELISA [abs. corr.] (abs. corr.): 0.468

Turning now to a further binder:
**Q:** Record request: ELISA [abs. corr.] value, item P018.S.11.A.H02 (antibody, V domains shown, V regions on human Ig constant parts; also called AB134_46) VH: QSVEESGGRLVTPGTPLTLTCTVSGFSLSNYAMSWVRQAPGKGLEWIGIISPSGNTYYANWAKGRFTISKTSTTVDLKITSPTTEDTATYFCAREGALYDDYGDYVDAFDPWGPGTLVTVSS VL: AAVLTQTPSPVSAAVGGTVSISCQSSESVYNNNWLSWYQQKPGQPPKLLIYRASTLASGVPSRFKGSGSGTQFTLTISDVQSDDAATYYCAGGYSSSSDINAFGGGTEVVVK
**A:** 2.8
